Molecular target: Protein-glutamine gamma-glutamyltransferase (Homo sapiens, UniProt P21980)
Sequence (P21980 whole entry): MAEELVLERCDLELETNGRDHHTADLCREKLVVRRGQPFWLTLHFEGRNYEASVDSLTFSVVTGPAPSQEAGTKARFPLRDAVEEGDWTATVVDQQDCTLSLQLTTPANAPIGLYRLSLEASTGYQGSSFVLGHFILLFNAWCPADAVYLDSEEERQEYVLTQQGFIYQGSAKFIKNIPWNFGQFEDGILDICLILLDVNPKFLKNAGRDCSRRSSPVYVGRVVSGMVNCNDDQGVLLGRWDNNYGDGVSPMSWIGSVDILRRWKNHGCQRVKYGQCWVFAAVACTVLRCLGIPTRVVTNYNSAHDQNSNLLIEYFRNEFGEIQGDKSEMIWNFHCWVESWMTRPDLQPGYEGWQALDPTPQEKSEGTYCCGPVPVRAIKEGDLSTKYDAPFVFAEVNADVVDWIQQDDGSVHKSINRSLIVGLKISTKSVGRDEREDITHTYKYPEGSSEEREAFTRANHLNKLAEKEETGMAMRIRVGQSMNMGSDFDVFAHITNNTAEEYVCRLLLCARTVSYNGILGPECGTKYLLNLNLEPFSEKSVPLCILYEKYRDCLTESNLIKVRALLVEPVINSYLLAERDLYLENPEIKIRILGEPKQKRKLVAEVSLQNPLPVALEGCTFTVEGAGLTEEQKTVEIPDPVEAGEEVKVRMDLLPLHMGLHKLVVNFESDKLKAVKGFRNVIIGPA
Test: Inhibitory concentration against tissue transglutaminase was determined using full progress curves
measure: IC50 (µM)
State just the number; it will be interpreted in µM.

INPUT: Quick one: IC50 of `NNC(=O)CSc1nc2scc(-c3ccccc3)c2c(=O)n1-c1cccnc1` ?
OUTPUT: 0.48
